- Method notes: Tmax in Sprague-Dawley rat 10 mg/kg, po measured upto 24 hrs
- Type: ADME, organism-based
- Experimental conditions: in vivo
Readout kind: Tmax (min)
Numbers only, in min.

Query block: Given the entry O=C(CN1CCCCC1)Nc1ccc(Oc2cc(=O)oc3ccccc23)cc1 , report its measured Tmax.
Result block: 37.8

---

- Method notes: Cytotoxicity against rat NRK-49F cells assessed as cell viability at 10 uM incubated for 72 hrs by MTT assay
- Assay type: cell-based
- Experimental conditions: read-out: Activity
Provide the reported viability at 72 h, 10 µM of each item.
Give bare numbers, in %.

# return viability at 72 h, 10 µM for each item in the list
1. COc1ccc2c(Nc3ccc(NC(=O)CN4CCOCC4)cc3)cc(=O)oc2c1
2. COc1ccc2c(Oc3ccc(NC(=O)CN4CCCC4)cc3)cc(=O)oc2c1
3. O=C(CN1CCCC1)Nc1ccc(Nc2cc(=O)oc3ccccc23)cc1F

Result block:
1. 89.1
2. 93.3
3. 74.3

Record viability at 72 h, 10 µM per entry; entries follow.
1. COc1ccc2c(Nc3ccc(NC(=O)CN4CCCC4)cc3)cc(=O)oc2c1
2. O=C(CN1CCOCC1)Nc1ccc(Oc2cc(=O)oc3ccccc23)cc1

Result block:
1: 52; 2: 97

---

- Method notes: Toxicity in BLM-induced C57BL/6 mouse pulmonary fibrosis model assessed as survival rate at 50 and 100 mg/kg, po observed for 28 days
- Assay type: organism-based
- Experimental conditions: in vivo
Readout kind: survival at 672 h (%)
Numbers only, in %.

Query block: Which survival at 672 h is reported for this compound? O=C(CN1CCCCC1)Nc1ccc(Oc2cc(=O)oc3ccccc23)cc1
Result block: 90

---

- Method notes: Half life in Sprague-Dawley rat at 5 mg/kg, iv measured upto 24 hrs
- Type: ADME, organism-based
- Experimental conditions: in vivo
Readout kind: half-life (h)
One number for each entry, in h.

Query block: Looking for the measured half-life of O=C(CN1CCCCC1)Nc1ccc(Oc2cc(=O)oc3ccccc23)cc1 , can you help?
Result block: 7.42

---

- Method notes: Clearance in Sprague-Dawley rat 10 mg/kg, po measured upto 24 hrs
- Type: ADME, organism-based
- Experimental conditions: in vivo
Readout kind: CL/F (mL/min/kg)
Give bare numbers, in mL/min/kg.

Query block: Can you look up the measured CL/F of O=C(CN1CCCCC1)Nc1ccc(Oc2cc(=O)oc3ccccc23)cc1 for me?
Result block: 108

---

- Method notes: Cmax in Sprague-Dawley rat at 5 mg/kg, iv measured upto 24 hrs
- Type: ADME, organism-based
- Set-up: dose 5 mg/kg, route intravenous
- Experimental conditions: in vivo
Readout kind: Cmax (ng/mL)
Numbers only, in ng/mL.

Query block: Given the entry O=C(CN1CCCCC1)Nc1ccc(Oc2cc(=O)oc3ccccc23)cc1 , report its measured Cmax.
Result block: 316

---

- Method notes: Cmax in Sprague-Dawley rat at 10 mg/kg, po measured upto 24 hrs
- Type: ADME, organism-based
- Parameters: dose 10 mg/kg, route oral
- Experimental conditions: in vivo
Readout kind: Cmax (µg/mL)
Give bare numbers, in µg/mL.

Query block: What does the record list as Cmax for O=C(CN1CCCCC1)Nc1ccc(Oc2cc(=O)oc3ccccc23)cc1 ?
Result block: 0.0747

---

Please go through the items and note down their bioavailability.
- Method notes: Oral bioavailability in Sprague-Dawley rat 10 mg/kg measured upto 24 hrs
- Type: ADME, organism-based
- Experimental conditions: in vivo
Give bare numbers, in %.

Smiles input: COC(=O)c1ccc2c(c1)NC(=O)/C2=C(\Nc1ccc(N(C)C(=O)CN2CCN(C)CC2)cc1)c1ccccc1
bioavailability (%): 12

Query block: State the recorded bioavailability for this entry: O=C(CN1CCCCC1)Nc1ccc(Oc2cc(=O)oc3ccccc23)cc1
Result block: 39.9

---

- Method notes: AUC (0 to t) in Sprague-Dawley rat 10 mg/kg, po measured upto 24 hrs
- Type: ADME, organism-based
- Parameters: time < 24 hr, dose 10 mg/kg, route oral
- Experimental conditions: in vivo
Readout kind: AUC(0-t) at 24 h (ng·h/mL)
Give bare numbers, in ng·h/mL.

Query block: # query: AUC(0-t) at 24 h of entry O=C(CN1CCCCC1)Nc1ccc(Oc2cc(=O)oc3ccccc23)cc1
Result block: 1100

---

- Test system: NRK-49F
- Method notes: Inhibition of TGF-beta-induced collagen accumulation in rat NRK-49F cells incubated for 2 days by PSR staining based microscopic analysis
- Type: functional, cell-based
Readout kind: inhibition

Smiles input: C[C@H]1CCCN(CC(=O)Nc2ccc(Nc3cc(=O)oc4ccccc34)cc2)C1
Study system: NRK-49F
Reported: Dose-dependent effect

Smiles input: COc1ccc2c(Nc3ccc(NC(=O)CN4CCN(C)CC4)cc3)cc(=O)oc2c1
Study system: NRK-49F
Reported: Dose-dependent effect

Smiles input: COc1ccc2c(Oc3ccc(NC(=O)CN4CCOCC4)cc3)cc(=O)oc2c1
Study system: NRK-49F
Reported: Dose-dependent effect

Smiles input: O=C(CN1CCCCC1)Nc1ccc(Oc2cc(=O)oc3ccccc23)cc1
Study system: NRK-49F
Reported: Dose-dependent effect

---

- Method notes: Cytotoxicity against rat NRK-49F cells assessed as cell viability at 10 uM incubated for 72 hrs by MTT assay
- Assay type: cell-based
- Experimental conditions: read-out: Activity
Exercise: state measured viability at 72 h, 10 µM for each of the compounds provided.
Numbers only, in %.

Smiles input: O=C(CN1CCCC1)Nc1ccc(Nc2cc(=O)oc3ccccc23)cc1
Readout kind: viability at 72 h, 10 µM
Reported: 62
//
Smiles input: COc1ccc2c(Oc3ccc(NC(=O)CN4CCCCC4)cc3)cc(=O)oc2c1
Readout kind: viability at 72 h, 10 µM
Reported: 90.4
//
Smiles input: C[C@H]1CCCN(CC(=O)Nc2ccc(Oc3cc(=O)oc4ccccc34)cc2)C1
Readout kind: viability at 72 h, 10 µM
Reported: 98
//
Smiles input: C[C@H]1CCCN(CC(=O)Nc2ccc(Nc3cc(=O)oc4ccccc34)cc2)C1
Readout kind: viability at 72 h, 10 µM
Reported: 91.5

Now examine the next entry.
Query block: Item COc1ccc2c(Nc3ccc(NC(=O)CN4CCCCC4)cc3)cc(=O)oc2c1 has what recorded viability at 72 h, 10 µM?
Result block: 41.3

---

- Method notes: Cytotoxicity against rat NRK-49F cells assessed as cell viability at 10 uM incubated for 72 hrs by MTT assay
- Assay type: cell-based
- Experimental conditions: read-out: Activity
Please use 1 (yes) for viability at 72 h, 10 µM under 50% and 0 (no) for everything else, ties included.

Smiles input: CN1CCN(CC(=O)Nc2ccc(Nc3cc(=O)oc4ccccc34)cc2F)CC1
Class name: 0 (no)
//
Smiles input: O=C(CN1CCCC1)Nc1ccc(Oc2cc(=O)oc3ccccc23)cc1
Class name: 0 (no)
//
Smiles input: O=C(CN1CCCC1)Nc1ccc(Nc2cc(=O)oc3ccc([N+](=O)[O-])cc23)cc1
Class name: 1 (yes)
//
Smiles input: O=C(CN1CCCCC1)Nc1ccc(Nc2cc(=O)oc3ccc([N+](=O)[O-])cc23)cc1
Class name: 1 (yes)

Query block: hey, is viability at 72 h, 10 µM for O=C(CN1CCOCC1)Nc1ccc(Nc2cc(=O)oc3ccccc23)cc1 lower than 50% or not?
Result block: 0 (no)

Query block: For O=C(CN1CCCCC1)Nc1ccc(Oc2cc(=O)oc3ccccc23)cc1 , is the recorded viability at 72 h, 10 µM below the cut-off of 50%?
Result block: 0 (no)

Query block: Is viability at 72 h, 10 µM strictly under 50% for the entry O=C(CN1CCOCC1)Nc1ccc(Nc2cc(=O)oc3ccc([N+](=O)[O-])cc23)cc1 ?
Result block: 1 (yes)

Query block: Strictly below 50% in viability at 72 h, 10 µM? O=C(CN1CCCCC1)Nc1ccc(Nc2cc(=O)oc3ccccc23)cc1F
Result block: 0 (no)

Query block: Confirm or reject: viability at 72 h, 10 µM of O=C(CN1CCOCC1)Nc1ccc(Nc2cc(=O)oc3ccccc23)cc1F lies strictly below 50%
Result block: 0 (no)
